Assayed System: UniProt:P55055
Sequence (P55055 222-460 limits assumed): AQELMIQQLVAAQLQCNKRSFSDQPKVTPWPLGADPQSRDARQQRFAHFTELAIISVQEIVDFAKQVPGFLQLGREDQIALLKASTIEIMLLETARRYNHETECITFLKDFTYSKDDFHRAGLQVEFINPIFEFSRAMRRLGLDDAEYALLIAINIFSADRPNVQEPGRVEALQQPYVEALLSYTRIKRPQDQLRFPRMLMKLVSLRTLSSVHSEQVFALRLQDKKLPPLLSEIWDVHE
Test: biochemical
Format: binding
Stated Conditions: read-out: LXRβ Binding Ki
Measured Property: pKi
Quick note: pKi values are minus log10 of concentrations in mol/L.

Here are 3 molecules together with their reported answers.
{"Molecule": "CS(=O)(=O)c1cc(F)cc(N2CCN(Cc3ccc(C(F)(F)F)nc3)C(c3ccccc3)C2)c1 (stereo not shown) [46-53]", "Assayed System": "UniProt:P55055", "pKi": 5.82}
{"Molecule": "CC(C)[C@@H]1CN(c2ccc(F)c(S(C)(=O)=O)c2)CCN1c1ncc(Cc2ccc(C(C)(C)O)cc2)c(C(F)(F)F)n1 [Cpd No 31-1]", "Assayed System": "UniProt:P55055", "pKi": 7.74}
{"Molecule": "CC(C)[C@@H]1CN(c2ccc(F)c(S(C)(=O)=O)c2)CCN1c1nc2cccnc2s1 [Cpd No 7-57]", "Assayed System": "UniProt:P55055", "pKi": 7.92}

Bench note: what pKi did CS(=O)(=O)c1cccc(N2CCN(CC3CCCOC3)[C@@H](c3ccccc3)C2)c1 (stereo partly shown) [51-4] show?
6.26

Could you tell me which pKi is on file for CC(C)[C@@H]1CN(c2ccc(F)c(S(C)(=O)=O)c2)CCN1C[C@H]1CC[C@@H](C(F)(F)F)CC1 [48-24] ?
7.26

Data request, read-out pKi, for CC(C)[C@@H]1CN(c2ccc(CO)c(S(C)(=O)=O)c2)CCN1c1ncc(C(C)(C)O)c(C(F)(F)F)n1 [10-7]
7.74
